Biological target: BRD4 BD2 (Homo sapiens, UniProt O60885)
Construct: BD2 TE
Assay: Target Engagement Intracellular BET BRD Assay (NanoBRET)
Details: read-out: BRD4 BD2 TE IC50
Protocol: 3× Complete Substrate plus Inhibitor Solution in Assay Medium (Opti-MEM® I Reduced Serum Medium, no phenol red, and no serum) was prepared just before measuring BRET. This solution consisted of a 1:166 dilution of NanoBRET™ Nano-Glo® Substrate plus a 1:500 dilution of Extracellular NanoLuc® Inhibitor in Assay Medium. […]
parameter: IC50 (nM)
Dear colleague, please return just the value in nM, with no unit written.

In: Quick one: IC50 of Cc1cc(-c2ccc(-n3ccn(C)c3=O)c(Cl)c2)c(N)c(-c2cccc(N3CCN(C(C)(C)C)CC3)c2)n1 [Example I-5] ?
Out: 0.473

In: What about Cc1cc(-c2ccc(-n3ccn(C)c3=O)c(Cl)c2)c(O)c(-c2cc(Cl)cc(N3CCN(C(C)(C)C)CC3)c2)n1 [Example I-6] ?
Out: 9.11

----------
A collection of molecules and their measured pIC50
Test system: MCP-1
Assay: PBMC MCP-1 HTRF Assay
Assay type: cell-based
Conditions: LPS 200 ng/mL, 24 hours
Interpret pIC50 as the negative base-10 log of the concentration measured in mol/L.

Cc1cc(-c2ccc(-n3ccn(C)c3=O)c(C)c2)c(O)c(-c2cccc(N3CCN(C(C)(C)C)CC3)c2)n1 | 8.83

Field: next molecule
In: Look at this molecule and give its reported pIC50. Cc1cc(-c2ccc(-n3ccn(C)c3=O)c(Cl)c2)c(O)c(-c2ccc(F)c(N3CCN(C(C)(C)C)CC3)c2)n1
Out: 8.75

----------
Recorded measurements of pIC50, one per entry
Tested on: MCP-1
Assay: PBMC MCP-1 HTRF Assay
Format: cell-based
Conditions: LPS 200 ng/mL, 24 hours
// scale note: pIC50 = -log10(conc_M); give the bare number

Look over these answered cases.
Cc1cc(-c2ccc(-n3ccn(C)c3=O)c(Cl)c2)c(O)c(-c2ccc(Cl)c(N3CCN(C(C)(C)C)CC3)c2)n1 | 8.20
Cc1cc(-c2ccc(-n3ccn(C)c3=O)c(Cl)c2)c(O)c(-c2cc(Cl)cc(N3CCN(C(C)(C)C)CC3)c2)n1 | 8.65

In: Field request: pIC50 | item: Cc1cc(-c2ccc(-n3ccn(C)c3=O)c(Cl)c2)c(O)c(-c2cccc(N3CCN(C(C)(C)C)CC3)c2)n1
Out: 8.91

In: Ok, now Cc1cc(-c2ccc(-n3ccn(C)c3=O)c(Cl)c2)c(N)c(-c2cccc(N3CCN(C(C)(C)C)CC3)c2)n1
Out: 9.23

In: Now give it for Cn1ccn(-c2ccc(-c3cc(F)nc(-c4cccc(N5CCN(C(C)(C)C)CC5)c4)c3O)cc2Cl)c1=O too.
Out: 7.78

In: Same again, this time with Cc1cc(-c2ccc(-n3ccn(C)c3=O)c(Cl)c2)c(O)c(-c2cc(F)cc(N3CCN(C(C)(C)C)CC3)c2)n1
Out: 8.33

In: Continue with COc1ncc(-c2cc(F)cc(-c3ccc(-n4ccn(C)c4=O)c(Cl)c3)c2O)cc1N1CCN(C(C)(C)C)CC1
Out: 8.96

----------
Below, each entry is listed with its recorded pIC50.
Biological target: BRD4 BD2 (Homo sapiens, UniProt O60885)
Construct: BD2 TE
Experiment: Target Engagement Intracellular BET BRD Assay (NanoBRET)
Conditions: read-out: BRD4 BD2 TE IC50
Field pIC50 (float): negative decimal logarithm of the concentration in molar.

Sample records with pIC50:
COc1ncc(-c2nc(C)cc(-c3ccc(-n4ccn(C)c4=O)c(Cl)c3)c2O)cc1N1CCN(C(C)(C)C)CC1 [Example I-3] | 8.35
Cc1cc(-c2ccc(-n3ccn(C)c3=O)c(Cl)c2)c(O)c(-c2ccc(Cl)c(N3CCN(C(C)(C)C)CC3)c2)n1 [Example I-11] | 8.37
[2H]C([2H])([2H])n1ccn(-c2ccc(-c3cc(C)nc(-c4cccc(N5CCN(C(C)(C)C)CC5)c4)c3O)cc2Cl)c1=O [Example I-4] | 7.99
Cc1cc(-c2ccc(-n3ccn(C)c3=O)c(C)c2)c(O)c(-c2cccc(N3CCN(C(C)(C)C)CC3)c2)n1 [Example I-10] | 8.12
COc1ncc(-c2cc(F)cc(-c3ccc(-n4ccn(C)c4=O)c(Cl)c3)c2O)cc1N1CCN(C(C)(C)C)CC1 [Example I-15] | 9.82

In: Value wanted: pIC50 (BRD4 BD2 (Homo sapiens, UniProt O60885)) of entry Cn1ccn(-c2ccc(-c3cc(F)cc(-c4cccc(N5CCN(C(C)(C)C)CC5)c4)c3O)cc2Cl)c1=O [Example I-1]
Out: 9.49

In: Then this molecule: Cc1cc(-c2ccc(-n3ccn(C)c3=O)c(Cl)c2)c(O)c(-c2cccc(N3CCN(C(C)(C)C)CC3)c2)n1 [Example I-2]
Out: 9.82
